All values here come from PubChem BioAssay (NCI).

- Test system: HCT-15 colon
- experiment-summary: NCI-60 one-dose screen, 48 h (100 = growth as untreated, 0 = no growth, -100 = all killed)
- experimental-conditions: 10 µM unless noted
Compounds without any hit were thinned out: in the full panel of roughly 83,000, 20% have a hit.

[
  {
    "compound": "CC1=C(C)C(=O)C(Nc2cccc(C(=O)OC(C)(C)C)c2)=CC1=O",
    "growth [%]": 60.4
  },
  {
    "compound": "C#CCOc1ccc(/C=N/Nc2nc(-c3ccc(OC)cc3)cs2)cc1",
    "growth [%]": 80.1
  },
  {
    "compound": "C/C(=C(/C)C1CC1CCNC1CCC(NC(=O)OC(C)(C)C)CC1)c1ccccc1 (stereo not drawn)",
    "growth [%]": 42.6
  },
  {
    "compound": "Cc1cccc(N2CCN(C3=C(Cl)C(=O)c4ncccc4C3=O)CC2)c1",
    "growth [%]": 24.8
  },
  {
    "compound": "CCCCCCN1C=C/C(=C\\C(=O)n2ccc3ccccc32)c2ccccc21",
    "growth [%]": 79.6
  },
  {
    "compound": "C=C(C)[C@@H]1CC[C@]2(C(=O)O)CC[C@]3(C)[C@H](CC[C@@H]4[C@@]5(C)C/C(=C/c6ccccn6)C(=O)C(C)(C)[C@@H]5CC[C@]43C)[C@@H]12",
    "growth [%]": 18.9
  },
  {
    "compound": "O=S(=O)(NCCCNc1nccc(-c2[nH]c(-c3ccccc3)nc2-c2ccc(F)c(O)c2)n1)c1cccc(F)c1",
    "growth [%]": 86
  },
  {
    "compound": "Nc1nc(=O)n([C@H]2C[C@H](O)[C@@H](CO)O2)cc1C=O",
    "growth [%]": 107
  },
  {
    "compound": "C=C(C)[C@@H]1CC[C@]2(COCCCNCCCN)CC[C@]3(C)[C@H](CC[C@@H]4[C@@]5(C)CC[C@H](O)C(C)(C)[C@@H]5CC[C@]43C)[C@@H]12",
    "growth [%]": -78
  },
  {
    "compound": "NS(=O)(=O)c1ccc(Nc2nc(N/N=C/c3ccc4c(c3)OCO4)nc(Nc3ccccc3)n2)cc1",
    "growth [%]": 82.7
  },
  {
    "compound": "C#CCOc1ccccc1/C=N/Nc1nc(-c2ccc(Cl)cc2)cs1",
    "growth [%]": 104
  },
  {
    "compound": "CNC(=O)c1cc(N2CCc3cc(NC(=O)Nc4ccc(N5CCN(C)CC5)c(C(F)(F)F)c4)ccc32)ccn1",
    "growth [%]": 29.1
  },
  {
    "compound": "O=C(CSc1nnc(-c2cccs2)n1-c1ccccc1)Nc1ccccc1",
    "growth [%]": 80.3
  },
  {
    "compound": "N#Cc1c(-c2ccc(F)cc2)cc(-c2c[nH]c3ccccc23)nc1-c1c[nH]c2ccccc12",
    "growth [%]": 99.6
  },
  {
    "compound": "O=C(NNc1nc2cc(F)cc(F)c2n2cccc12)c1cccnn1",
    "growth [%]": 27.9
  },
  {
    "compound": "NCCNC(=O)c1cccc(COc2ccccc2NC(=O)c2cc(Cl)c(Cl)[nH]2)c1",
    "growth [%]": 94.3
  },
  {
    "compound": "O=C1[C@@H]2Cc3c([nH]c4ccccc34)[C@H](c3ccc(Br)cc3)N2C(=O)CN1C1CCN(Cc2c(Cl)cccc2Cl)CC1",
    "growth [%]": 89.4
  },
  {
    "compound": "Cn1c(SCC(=O)c2ccc(F)cc2)nc2ccccc2c1=O",
    "growth [%]": 104
  }
]
